Origin of the recorded values: PubChem BioAssay (NCI)

# Tested on: SR leukemia
# test_protocol: NCI-60 one-dose screen, 48 h (100 = growth as untreated, 0 = no growth, -100 = all killed)
# condition_set: 10 µM unless noted
# Protocol: Growth inhibition of the SR human tumor cell line is measured as a screen for anti-cancer activity. Cells are grown in 96 well plates and exposed to the test compound for 48 hours. Compounds are tested at a single concentration, which is 10^-5 M for most compounds. The reported endpoint is percent growth (GI% or GIPRCNT), where numbers from 0 - 100% represent growth inhibition, and numbers from -100% - 0 represent cell death. For example, a value of 40 represents 60% growth inhibition. […]
This is part of a sample that, as a whole, favours compounds with a hit. Of some 83,000 tested, about 20% had one in any assay.
value_type: growth (%)
Note: unit % is implicit; provide only the numeric part.

Before answering, review these 5 worked examples.
O=C(Nc1ccc(F)c(F)c1)c1cc(-c2ccc(F)cc2F)ccc1O = 32.8
NS(=O)(=O)c1ccc(-n2cc(-c3cccc(NC(=O)c4ccc(N5CCOCC5)c(C(F)(F)F)c4)c3)nn2)cc1 = 4.3
Cc1cc2nc(C(Cl)Cl)nc(-c3cccs3)n2n1 = 48.3
C[C@@H]1C[C@H]2C(=O)O[C@@H](C)C(NC(=O)[C@H](Cc3cc(F)cc(F)c3)NC(=O)Nc3ccc(Cl)cc3F)C(=O)N3CCC[C@H]3C(=O)N3CCCC[C@H]3C(=O)N[C@@H](CO)C(=O)N2C1 (stereo partly drawn) = 31.2
O=S(=O)(NCCCNc1nccc(-c2[nH]c(-c3ccccc3)nc2-c2ccc(Cl)c(O)c2)n1)c1cccc(F)c1 = 39.4

Bench note, SR leukemia: `Cc1ccc(S(=O)(=O)N(CC[C@@H]2C[C@H]2c2cc3ccccc3o2)S(=O)(=O)c2ccc(C)cc2)cc1` , growth reads 128

Bench note, SR leukemia: `NC(N)=Nc1ccc(Oc2cccc(NC(N)=Nc3ccc(Cl)c(C(F)(F)F)c3)c2)cn1` , growth reads -16.4

Bench note, SR leukemia: `O=C(c1ccc(O)cc1)[C@@H]1CN[C@@]2(C(=O)Nc3ccccc32)[C@H]1c1ccc(F)cc1` , growth reads 87.5

Bench note, SR leukemia: `N#Cc1cccc(CN2CCC3=C(C2)C(=O)N(Cc2ccc(Cl)cc2)C2=NCCN23)c1` , growth reads 32.9

Bench note, SR leukemia: `COc1ccc(Oc2ccc(/C=N/NC(=O)CSc3nc4ccccc4c(=O)n3-c3ccc(Cl)cc3)cc2)cc1` , growth reads 72.8

Bench note, SR leukemia: `N#Cc1c(-c2cccs2)cc(-c2cnccn2)nc1SCC(=O)c1ccc(F)cc1` , growth reads 81.3
